Provenance of the data: patent US6723753B2

# tgt: CETP (Homo sapiens, UniProt P11597)
# test-summary: Assay of CETP Inhibition using Purified Components (Reconstituted Buffer Assay)
# Assay type: biochemical
# Parameters: made in house; host or cells: CHO cells (serum-free conditioned medium)
# condition-set: Inhibition of CETP activity in reconstituted buffer assay; transfer of [3H]CE from HDL to LDL; read-out: IC50
endpoint-label: IC50 (µM)

OC(CN(Cc1cccc(OC(F)(F)C(F)F)c1)c1cccc(OC(F)(F)F)c1)C(F)(F)F (stereo not shown) : 1.2

I: OC(CN(Cc1cccc(C2CCCO2)c1)c1cccc(Oc2ccccc2)c1)C(F)(F)F (stereo not shown)
II: N#CCOc1cccc(N(Cc2cccc(OC(F)(F)C(F)F)c2)CC(O)C(F)(F)F)c1 (stereo not shown)
Could you kindly indicate whether I or II has the higher IC50 value? Respond with the label that goes with your answer. II
(II: 4.4 µM, I: 2.3 µM)

---

# tgt: CETP (Homo sapiens)
# Sequence (P11597 18-493): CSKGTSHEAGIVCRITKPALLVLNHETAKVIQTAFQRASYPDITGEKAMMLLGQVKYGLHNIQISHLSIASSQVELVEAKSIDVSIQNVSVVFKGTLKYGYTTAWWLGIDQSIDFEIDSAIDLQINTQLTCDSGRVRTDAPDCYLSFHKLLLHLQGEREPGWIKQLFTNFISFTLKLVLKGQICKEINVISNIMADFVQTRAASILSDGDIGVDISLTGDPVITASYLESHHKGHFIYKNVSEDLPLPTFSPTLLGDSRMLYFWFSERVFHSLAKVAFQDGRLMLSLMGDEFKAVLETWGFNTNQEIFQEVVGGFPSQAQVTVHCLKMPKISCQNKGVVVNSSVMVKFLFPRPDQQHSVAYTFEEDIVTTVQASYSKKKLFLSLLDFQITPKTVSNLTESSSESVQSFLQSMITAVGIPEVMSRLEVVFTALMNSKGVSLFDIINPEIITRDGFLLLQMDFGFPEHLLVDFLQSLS
# test-summary: Assay of CETP Inhibition using Purified Components (Reconstituted Buffer Assay)
# Format: biochemical
# Set-up: made in house; host or cells: CHO cells (serum-free conditioned medium)
# condition-set: Inhibition of CETP activity in reconstituted buffer assay; transfer of [3H]CE from HDL to LDL; read-out: IC50
pIC50: −log10 of the molar value.
endpoint-label: pIC50

OC(CN(Cc1ccc(-c2ccccc2)cc1)Cc1cccc(OC(F)(F)F)c1)C(F)(F)F (centres unmarked) : 4.40

a: OC(CN(Cc1ccc(Oc2ccc(Cl)c(Cl)c2)cc1)c1cccc(Oc2ccccc2)c1)C(F)(F)F (centres unmarked)
b: OC(CN(Cc1cccc(Cl)c1)Cc1cccc(OC(F)(F)F)c1)C(F)(F)F (centres unmarked) [compound 694]
c: OC(CN(Cc1cccc(OC(F)(F)C(F)F)c1)c1cccc(NCc2cccc(OC(F)(F)C(F)F)c2)c1)C(F)(F)F (centres unmarked)
d: CC(C)Oc1cccc(N(Cc2cccc(OC(F)(F)C(F)F)c2)CC(O)C(F)(F)F)c1 (centres unmarked)
e: OC(CN(Cc1cccc(OC(F)(F)F)c1)c1cccc(OCc2ccccc2)c1)C(F)(F)F (centres unmarked)
Could you please sort these 5 entries by pIC50 from high to low? Answer by naming the labels in the order asked. d, c, e, b, a

---

# tgt: CETP (Homo sapiens, UniProt P11597)
# test-summary: Assay of CETP Inhibition using Purified Components (Reconstituted Buffer Assay)
# Format: biochemical
# Design: made in house; host or cells: CHO cells (serum-free conditioned medium)
# condition-set: Inhibition of CETP activity in reconstituted buffer assay; transfer of [3H]CE from HDL to LDL; read-out: IC50
# Procedure: Assay of CETP Inhibition using Purified Components (Reconstituted Buffer Assay) The ability of compounds to inhibit CETP activity was assessed using an in vitro assay that measured the rate of transfer of radiolabeled cholesteryl ester ([^3H]CE) from HDL donor particles to LDL acceptor particles. […] After filtration, the radioactivity present in the precipitated LDL was measured by liquid scintillation counting. […] Examples of IC50 values determined by these methods are specified in Table 9.
endpoint-label: IC50 (µM)

Consider the following illustrative entries.
CCC(=O)c1ccc(Oc2cccc(N(Cc3cccc(OC(F)(F)C(F)F)c3)CC(O)C(F)(F)F)c2)cc1 (stereo not shown) [Example 693] : 1.2
Cc1cc(Cc2cccc(N(Cc3cccc(OC(F)(F)C(F)F)c3)CC(O)C(F)(F)F)c2)ccc1F (stereo not shown) [Example 521] : 0.43
OC(CN(Cc1cccc(OC(F)(F)F)c1)c1ccc2c(c1)OC(F)(F)C(F)(F)O2)C(F)(F)F (stereo not shown) [Example 89] : 2.3

I: OC(CN(Cc1cccc(C(F)(F)F)c1)c1cccc(Br)c1)C(F)(F)F (stereo not shown) [Example 30]
II: COCc1cccc(CN(CC(O)C(F)(F)F)c2cccc(Oc3ccccc3)c2)c1 (stereo not shown) [Example 627]
Smaller IC50 value? Options are I and II Respond with the label that goes with your answer. II
(II: 4.1 µM, I: 22 µM)

P: CCCCCCCCc1ccc(N(Cc2cccc(OC(F)(F)F)c2)CC(O)C(F)(F)F)cc1 (stereo not shown) [Example 88]
Q: OC(CN(Cc1cccc(OC(F)(F)F)c1)c1ccc(F)c(F)c1)C(F)(F)F (stereo not shown) [Example 78]
R: COc1cccc(CN(CC(O)C(F)(F)F)c2cccc(OC(F)(F)F)c2)c1 (stereo not shown) [Example 348]
S: OC(CN(Cc1cccc(OC(F)(F)C(F)F)c1)c1cccc(OCc2cccc(F)c2F)c1)C(F)(F)F (stereo not shown) [Example 399]
T: OC(CN(Cc1cccc(C(F)(F)F)c1)c1cc(C(F)(F)F)ccc1C(F)(F)F)C(F)(F)F (stereo not shown) [Example 691]
Order the entries by their reported IC50, beginning at the minimum. Answer by naming the labels in the order asked. S, T, Q, R, P

1: OC(CN(Cc1cccc(OC(F)(F)C(F)F)c1)c1cccc(Sc2ccccc2)c1)C(F)(F)F (stereo not shown) [compound 290]
2: OC(CN(Cc1cccc(Oc2ccc(Cl)c(Cl)c2)c1)c1cccc(OC(F)(F)F)c1)C(F)(F)F (stereo not shown) [Example 95]
Could you kindly indicate whether 1 or 2 has the higher IC50 value? Respond with the label that goes with your answer. 2

P: CC(C)CC(=O)c1cccc(CN(CC(O)C(F)(F)F)c2cccc(Oc3ccccc3)c2)c1 (stereo not shown) [compound 621]
Q: COc1cc(CN(CC(O)C(F)(F)F)c2cccc(OC(F)(F)F)c2)ccc1OC(C)=O (stereo not shown) [Example 119]
R: CCOc1ccc(CN(CC(O)C(F)(F)F)c2cccc(OC(F)(F)F)c2)cc1OCC (stereo not shown) [Example 138]
S: Cc1ccc(Cc2cccc(N(Cc3cccc(OC(F)(F)C(F)F)c3)CC(O)C(F)(F)F)c2)cc1C (stereo not shown) [Example 523]
T: O=C(NCC(F)(F)C(F)(F)C(F)(F)F)c1cccc(N(Cc2cccc(OC(F)(F)C(F)F)c2)CC(O)C(F)(F)F)c1 (stereo not shown) [Example 464]
Could you please sort these 5 entries by IC50 from high to low? Answer by naming the labels in the order asked. Q, R, P, T, S
(Q: 70 µM, R: 30 µM, P: 9.3 µM, T: 3 µM, S: 0.77 µM)
